Biological target: Rvs167, P39743
Sequence (P39743 419-482): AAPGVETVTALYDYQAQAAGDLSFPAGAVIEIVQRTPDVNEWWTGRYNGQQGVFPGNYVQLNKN
Assay: SPOT array
Conditions: median of control spots 2707
parameter measured: SPOT intensity

binder=FFRRSELYLPNSSKA result_value=5
binder=HVRRSILALPLGVLL result_value=2
binder=SRYRRPLTLLLLKPF result_value=7
binder=KFIPSRPAPKPPSSA result_value=7
binder=QGYPRQPQRPQRYHP result_value=0
binder=SHRLWLYAAPKRPKT result_value=0
binder=SPLGAPPPPPHKDHL result_value=2
binder=AHFQPQRTAPKPPIS result_value=0
binder=KKIRLIFTYPSTVGR result_value=0
binder=LASNSPPVYPKRIRH result_value=0
binder=PSRRDSLSIPRAVDA result_value=0
binder=GERSRPLVISILSSA result_value=0
binder=YYNRQELALPKRMSS result_value=21
binder=NMLSRPRLAKLPSIR result_value=0
binder=KRKRRLPVSEDTNTK result_value=1
binder=WTQRRGPLVVYAEDN result_value=0
binder=ISRRRLPVIMHRLKM result_value=21
binder=NNQRRKPLLLNIGDH result_value=0
binder=GPPPPLPPPLFPSSS result_value=0
binder=KMSRSPPRPPSLKII result_value=67
binder=IAPIPMPKPNPTHIS result_value=0
binder=NPNRRAPRRPLSTQH result_value=0
binder=GKKVRPLLVLLLSRA result_value=0
binder=PAPPPPPRASRPTPN result_value=514
binder=FPGKKSPRLPHRNKK result_value=314
binder=PLRRTVMSLPGNHDI result_value=0
binder=SSAAPPPPPRRATPE result_value=1790
binder=SKSRLLIELPEGFFT result_value=0
binder=HHNRRKPLEVYFKAT result_value=2
binder=AERNYAPRLPRRETS result_value=306
